System: potassium channel
Type: cell-based, squid Loligo pealei
Details: +60 mV; calculated from Kd = l/b and tau decay (Table IV)
Form field: rate constant of block b (one value per entry).

{"COMPOUND": "CCCCCCCCCC[N+](CCO)(CCO)CCO [C10TEtoh, decyltriethanolammonium]", "rate constant of block b": "0.43 ms-1 mM-1"}
{"COMPOUND": "CCCCCCC[N+](CC)(CC)CC [C7TE, heptyltriethylammonium]", "rate constant of block b": "2.8 ms-1 mM-1"}
{"COMPOUND": "CCCCCCCC[N+](CC)(CC)CC [CsTE, octyltriethylammonium]", "rate constant of block b": "5.1 ms-1 mM-1"}
{"COMPOUND": "CCCCCCCC[N+](CC)(CC)CCO [CsDEEtoh, octyldiethylethanolammonium]", "rate constant of block b": "6.2 ms-1 mM-1"}
{"COMPOUND": "CC[N+](CC)(CCO)CCCc1ccccc1 [~PDEEtoh, phenylpropyldiethylethanolammonium]", "rate constant of block b": "3.4 ms-1 mM-1"}
{"COMPOUND": "CCCCCCCC[N+](CC)(CC)CCCO [CsDEProh, octyldiethylpropanolammonium]", "rate constant of block b": "2.56 ms-1 mM-1"}
{"COMPOUND": "CCCCCCCCCC[N+](CC)(CC)CC [C10TE, decyltriethylammonium]", "rate constant of block b": "5.2 ms-1 mM-1"}
{"COMPOUND": "CC[N+](CC)(CC)CCCc1ccccc1 [~PTE, phenylpropyltriethylammonium]", "rate constant of block b": "2.5 ms-1 mM-1"}
{"COMPOUND": "CCCCCCCCCC[N+](CCC)(CCC)CCC [C10TP, decyltripropylammonium]", "rate constant of block b": "0.13 ms-1 mM-1"}
{"COMPOUND": "CCCCCCCCC[N+](CC)(CC)CC [C9TE, nonyltriethylammonium]", "rate constant of block b": "5.5 ms-1 mM-1"}
{"COMPOUND": "CCCCCCCC[N+](CCC)(CCC)CCC [CsTP, octyltripropylammonium]", "rate constant of block b": "0.95 ms-1 mM-1"}
